These measurements were taken from patent US5244883A.

Reported pIC50 is given for each of the following compounds.
Biological target: GRP receptors on Swiss 3T3 cells (Mus musculus)
Construct: conducted in 24-well tissue culture plates (GIBCO) using Swiss 3T3 cells; endogenous in cells
Test: Receptor binding assay: displacement of 125I-GRP(14-27) on Swiss 3T3 cells
Settings: calculated by Cheng and Prussoff equation IC50=Kc(1+L/Kh); 0.2 nM radioligand
pIC50: −log10 of the molar value.

| compound | pIC50 |
| --- | --- |
| CC(C)C[C@@H](CN1Cc2[nH]c3ccccc3c2C[C@H]1C(N)=O)NC(=O)[C@H](Cc1c[nH]cn1)NC(=O)CNC(=O)[C@@H](NC(=O)[C@H](C)NC(=O)[C@H](Cc1c[nH]c2ccccc12)NC(=O)[C@H](CCC(N)=O)NC(=O)[C@@H]1Cc2c([nH]c3ccccc23)CN1)C(C)C [Peptide 22] | 8.94 |
| CC(C)C[C@@H](CN[C@@H](Cc1c[nH]c2ccccc12)C(N)=O)NC(=O)[C@H](Cc1c[nH]cn1)NC(=O)CNC(=O)[C@@H](NC(=O)[C@H](C)NC(=O)[C@H](Cc1c[nH]c2ccccc12)NC(=O)[C@H](CCC(N)=O)NC(=O)[C@H]1Cc2c([nH]c3ccccc23)CN1)C(C)C [Peptide 30] | 8.29 |

----------
Reported IC50 is given for each of the following molecules.
Target: GRP receptors on Swiss 3T3 cells (Mus musculus, UniProt P21729)
Construct: conducted in 24-well tissue culture plates (GIBCO) using Swiss 3T3 cells; endogenous in cells
Sequence (P21729 whole entry): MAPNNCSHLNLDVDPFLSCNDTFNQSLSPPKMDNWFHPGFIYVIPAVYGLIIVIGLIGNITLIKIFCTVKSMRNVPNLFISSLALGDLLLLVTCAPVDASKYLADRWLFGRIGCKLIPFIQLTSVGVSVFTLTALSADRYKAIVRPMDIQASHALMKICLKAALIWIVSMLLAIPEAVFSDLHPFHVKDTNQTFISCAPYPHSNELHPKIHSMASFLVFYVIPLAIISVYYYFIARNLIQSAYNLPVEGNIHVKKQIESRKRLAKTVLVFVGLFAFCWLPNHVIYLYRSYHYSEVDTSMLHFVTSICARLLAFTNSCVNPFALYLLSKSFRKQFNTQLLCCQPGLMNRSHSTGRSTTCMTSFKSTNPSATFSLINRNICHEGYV
Assay: Receptor binding assay: displacement of 125I-GRP(14-27) on Swiss 3T3 cells
Settings: calculated by Cheng and Prussoff equation IC50=Kc(1+L/Kh); 0.2 nM radioligand
reported.property: IC50 (nM)

| molecule | recorded.measurement |
| --- | --- |
| CC(C)C[C@@H](CN1Cc2[nH]c3ccccc3c2C[C@H]1C(N)=O)NC(=O)[C@H](Cc1c[nH]cn1)NC(=O)CNC(=O)[C@@H](NC(=O)[C@H](C)NC(=O)[C@H](Cc1c[nH]c2ccccc12)NC(=O)[C@H](CCC(N)=O)NC(=O)[C@H](N)Cc1c[nH]c2ccccc12)C(C)C [Peptide 18] | 4.6 |
| CC(C)C[C@@H](CN1Cc2[nH]c3ccccc3c2C[C@H]1C(N)=O)NC(=O)[C@H](Cc1c[nH]cn1)NC(=O)CNC(=O)[C@@H](NC(=O)[C@H](C)NC(=O)[C@H](Cc1c[nH]c2ccccc12)NC(=O)[C@H](CCC(N)=O)NC(=O)[C@H]1Cc2c([nH]c3ccccc23)CN1)C(C)C [Peptide 26] | 25.3 |

----------
Target: GRP receptors on Swiss 3T3 cells (Mus musculus)
Construct: conducted in 24-well tissue culture plates (GIBCO) using Swiss 3T3 cells; endogenous in cells
Experiment: Receptor binding assay: displacement of 125I-GRP(14-27) on Swiss 3T3 cells
Conditions: 0.2 nM 125I-GRP(14-27), Swiss 3T3 cells, 37° C. 30 min
pKd: −log10 of the molar value.
Reported pKd is given for each of the following molecules.

| molecule | pKd |
| --- | --- |
| CC(C)C[C@@H](CN[C@@H](CC(C)C)C(N)=O)NC(=O)[C@H](Cc1c[nH]cn1)NC(=O)CNC(=O)[C@@H](NC(=O)[C@H](C)NC(=O)[C@H](Cc1c[nH]c2ccccc12)NC(=O)[C@H](CCC(N)=O)NC(=O)[C@H](N)Cc1c[nH]c2ccccc12)C(C)C [Peptide 2] | 7.97 |
| CC(C)C[C@@H](CN1Cc2[nH]c3ccccc3c2C[C@H]1C(N)=O)NC(=O)[C@H](Cc1c[nH]cn1)NC(=O)CNC(=O)[C@@H](NC(=O)[C@H](C)NC(=O)[C@H](Cc1c[nH]c2ccccc12)NC(=O)[C@H](CCC(N)=O)NC(=O)[C@@H]1Cc2c([nH]c3ccccc23)CN1)C(C)C [Peptide 22] | 9.05 |
